Experimental Protocol: soluble on expression in E. coli; label from the status in PepcDB or PDB records
Property Name: soluble on expression in E. coli

1) MKQQEVRQRAFAMPLTSPAFPPGPYRFVNREYMIITYRTDPAAIEAVLPEPLQMAEPVVRYEFIRMPDSTGFGDYSESGQVIPVTFRGERGSYTLAMFLDDQPPLAGGRELWGFPKKAGKPRLEVHQDTLVGSLDFGPVRIATGTMGYKYEALDRSALLASLAEPNFLLKIIPHVDGSPRICELVRYHTTDVAIKGAWSAPGSLELHPHALAPVAALPVLEVLSARHFVCDLTLDLGTVVFDYLRQ    soluble
2) MDAEQLLKAITPEVYDRLVYAVETGRWPEGTTLSREQRDSCMQAVMLYQSKHNTEAQHMTVAAGGEISFKSKQELKKQFNTDESDIVRVNPNLD    not soluble
3) MQMSMLTRLHYFNCVVETGSISKASRIFDVQPSSISRQLTALEKELGVLLLKRTSRNIGLTEAGQTYYKYSQKIVSDLDEARCAVNDLQQKPKGNLKVSMAVGFAECCILPMIPTFTKLYPEINLELEMTGRVVDLVEENVDVAIRTGRLRDSNLIALKLTSNNFLLCASPQYITEHGTPKSPFNLTDFECIRYEYAGWRDWYLMNDKPTKLTIKSGLTVRSINGQKQLILNHAGLALMPKWSVINELDNGTLVQVLEQNIFSPYESMSSTYAIYLKRELISPKVRVFIDFIKDHIDYNS    not soluble
4) MGWCITVVHNTKWKAPPDTHIKCNYDAGFNVQNLDSTARWIIRNHDGIAQHWGSLQLDNTSTPLEAETKALLAALQQTWIRGYLRVIMEGDCETLTNLVSGSSSHNHLANLLDDIRIWAKKFSNVQFSFVRRGGNKVAHELAKLGCNSTCFYSDSCTLPIWLHQHYCNDFG    soluble
5) MGSDKIHHHHHHMKAVLVEQPGSSEQLKVVEREIPKIKEGWSLVKIKGFGINRSEIFTRKGYSPSVVFPRVLGIECVGIIEETSDKNHFFHGQKVVSIMGEMGRAFDGSYAEYVLLPNEQIYPIKTNLTWDKLAAAPESYYTAYGAYKNLKLKKQDLVLVRAGASGVALAFLNLLKASLPEIKVTASVRSLAKKQQLLDSGYDEVIIDRDSCLQTKQKFDKVLDLIGPACIDDTLNHVADGGIICLVGLLGGQWTLDNFDPIMALQNNIYLTTFYSGNINLNKLQELFDFIAKYAVPIKVEKIFTIDHIKEAHDYLESPQAFGKVIVLNGVA    not soluble
6) GSMAGSVGAAAPVTAANGDDSESETSESDDDSPPRPAAVAVHKREEDEEEDDEFEEVADDPIVMVAGRPFSYSEVSQRPELVAQMTPEEKEAYIAMGQRMFEDLFE    soluble
7) MGSDKIHHHHHHMPLLDIRNLTIELNTNNTKVKVLEKVSLTLNAGEIHGLVGESGSGRSLLAKAILGALGPQWTVIADRLMLDGKNLLDMSPKQRRCLMGSDIAMIFQDPSGSLDPVKTIGSQLIESMTPNKAVAFWRRGKDTYLNALKWLHKVGIKNPKSLMSCYPWELSEGECQKVMIAMAIANRPKLLIADEPTNSVELNAQAQIFRLLSQLNQLQNVSILLISHELETLVQWCDHLTVLYGGQVMESGPTDEMIAHPFHPYTKALLKNLPDYTGKMRHKSYLPTLQGSSPSLHNMPAGCRLGPRCPEAQRNCVKQPALEHQKDRYFACHFPYLNEQDTDDDAIA    not soluble
8) AKKIGIEQSLSDVEAALKEKGYDVVMMKSPADAQGCDCCVVTGLDNNVQGIADTVTQAPVITASGMTAEEICSEVESRIQ    not soluble
9) MNYFNVGKIVNTQGLQGEMRVLSVTDFAEERFKKGAELVLFDEKDQFVQTVTIASHRKQKNFDIIKFKDMYHINTIEKYKGYSLKVAEEDLNDLDDGEFYYHEIIGLEVYEGDSLVGTIKEILQPGANDVWVVKRKGKRDLLLPYIPPVVLNVDIPSKRVDVEILEGLDDEDLEHHHHHH    soluble
10) GSSGSSGHESETTTSLVLERSLNRVHLLGRVGQDPVLRQVEGKNPVTIFSLATNEMWRSGDSEVYQLGDVSQKTTWHRISVFRPGLRDVAYQYVKKGSRIYLEGKIDYGEYMDKNNVRRQATTIIADNIIFLSDQTKEKE    soluble
11) MARHFGMALAPWDVMGGGRFQSKKAMEERRKNGECIRSFVGASEQTDAEIKISEALAKVAEEHGTESVTAIAIAYVRSKAKNVFPSVEGGKIEDLKENIKALSIDLTPDNIKYLENVVPFDIGFPNTFIVLNSLTQKYGTNNV    soluble
12) MAHHHHHHMNVALIFGITGQDGSYLSELLLEKGYTVHGVIRRCSSFNTKRIDHIFDQLNLHYGDVLDSSSICKLISKIKPHEIYNLAAQSHVKVSFELPVYTAETTAVGTLRILEAIKISNLPDVKFYNASTSELFGSSTDDRQHESTPFNPVSPYAIAKLYSHYITICYRKSYQMFCVNGILFNHESPRRGETFVTRKITRGVANICKNRQNCLVLGDLSTYRDWGHAKDYVRAMYLMLQQDEPDDFVISSNEKHTVKEFCEISFSFVGIFLKWKGTGIQEVGVDQHDRVLIKKDPRYYRECDVFHLHGDSSKARQKLQWAPTYSFFQLIYEMLTYDFEQCSLPIDDFDTCVSRYENYRGVPTK    not soluble
13) SEQTEVMKPETLEDLIKTLHQIFQSDSINVEEVQNLMESYQSNPQDWMKFAKFDQYRYTRNLVDEGNGKFNLMILCWGEGHGSSIHDHTDSHCFLKLLQGQLKETLFDWPDRKLQSGMKPRGQSVLQENQCAYINDSLGLHRVENVSHTEPAVSLHLYSPPFQSCRTFDQRTGHHNTVKMTFWSKYGERTPYELSVSQENN    soluble

====

Experimental Protocol: soluble on expression in E. coli; label from the status in PepcDB or PDB records
Property Name: soluble on expression in E. coli

1) MGSDKIHHHHHHRTKDQYYELRDFALGTSVRIVVSSQKINPRTIAEAILEDMKRITYKFSFTDERSVVKKINDHPNEWVEVDEETYSLIKAACAFAELTDGAFDPTVGRLLELWGFTGNYENLRVPSREEIEEALKHTGYKNVLFDDKNMRVMVKNGVKIDLGGIAKGYALDRARQIALSFDENATGFVEAGGDVRIIGPKFGKYPWVIGVKDPRGDDVIDYIYLKSGAVATSGDYERYFVVDGVRYHHILDPSTGYPARGVWSVTIIAEDATTADALSTAGFVMAGKDWRKVVLDFPNMGAHLLIVLEGGAIERSETFKLFERE    soluble
2) MVSFVNCRSQIKTNMQEQNNPLLCNPESGFCEMPSIKPDTAHQADLKSDKKPVKVIYYTDPICSSCWGIEPQLRKLKLEYGTSIDIEYRMGGLLPDWSYNSGGISKPSDVAHHWDEVSVYYDMPIDGGVWLEDPLPSSYPPSIAFKAVQIQSTERAILFLREIREMVFLQKKNIAKWEHLEQAAKNTGVNIEQFKKDYEGRAKDLFYADLKLARDLGVHGFPTMIFSDSTGKNETVYGYKPYAVFENTIAGLYPSVQKYTYDKSIAAVFSTFHSLTAKEFSELTGVARNQSEQMLDEYVKQGMLQKWTTKNGSLWSLKK    not soluble
3) MGSDKIHHHHHHMKLIDLHVHSYHSDGVLAPAVLVAMAAERGLASLAIADHDAVDGIDEAVAEGVRLGVDVIPAVELSVELGRFSDLHILGYCIDHHDPAFRDKLAGFRSARDNRGKAILEKINRRLLHSRKAPLSYDEVLSMAGGAVGRPHIGRVLVDNGYARDMEDAFRRYLIPCNVPKRYMPAGEAIAEIRRIGGVSVLAHPPTITDDRRRLRQVVEQLAQLGLDGLEVFNNLCFKDDMLYLERLAEEFGLLMTGGSDFHGFEDDVELGRGRGGLAVAHSLAEKVKELAAQRKHSHA    not soluble
4) MGSDKIHHHHHHMSADIVFDRGSPSDIDEIKTFTSNTWKVGYYTDLYSKLADTGTMDDYVDKVIERWVNDGSVYVLRVSGRPVATIHMEKLPDGSVMLGGLRVHPEYRGSRLGMSIMQETIQFLRGKTERLRSAVYSWNEPSLRLVHRLGFHQVEEYPIYTFQGGSTAVPALKPVNERYAGRWRCFFIDWKYMCSDDPDIIHEEYSNNLIVDGSTFVYFDIYEGGIDLFVNDSDDASSFIEKYRSMNGRITFYVRKALANGLPYVPASSLTVWEYRY    not soluble
5) MSLNNIQIRNYQPGDFQQLCAIFIRAVTMTASQHYSPQQISAWAQIDESRWKEKLAKSQVWVAIINAQPVGFISRIEHYIDMLFVDPEYTRRGVASALLKPLIKSESELTVDASITAKPFFERYGFQTVKQQRVECRGAWFTNFYMRYKPQHEGGSHHHHHH    soluble
6) TRVYDESGKEVGKLFGQKGTFVELDNISPYIQDAVISTEDRGFYQHKGYSIKGIARAVVGKLTFGKIGGGGGGSTITQQLAKNAYLTQEQTLDRKARELFLAIEIEKKYSKKDILAMYLNNSYFGNGVWGVQDAARKYFGVDASQVTVGEAATLAGMLKGPGIYNPIDYI    not soluble
